Entry source: patent USRE47150

List of variant/HC_K99L values.
- test system: T1, mouse tissue factor pathway inhibitor (TFPI) (mouse, UniProt O54819 29-289, limits assumed)
- T1 construct: bought; also called mTFPI; murine TFPI
- T1 sequence (looked up): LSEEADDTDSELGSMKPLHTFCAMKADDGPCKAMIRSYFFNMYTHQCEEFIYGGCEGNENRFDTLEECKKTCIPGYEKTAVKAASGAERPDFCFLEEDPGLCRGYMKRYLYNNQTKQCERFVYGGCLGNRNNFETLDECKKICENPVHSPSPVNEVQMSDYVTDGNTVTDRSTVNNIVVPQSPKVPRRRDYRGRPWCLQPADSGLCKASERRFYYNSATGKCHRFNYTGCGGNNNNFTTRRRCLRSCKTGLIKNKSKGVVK
- assay: competitive ELISA
Reply with a number, then the unit it belongs to.

binder	variant/HC_K99L
2A8 HC R30S+S31V+I51D+S55R+K99V/LC Y48F+D91L+V96W (Fab, V domains shown) VH: QVQLVESGGGLVQPGGSLRLSCAASGFTFSVYGMSWVRQAPGKGLEWVSSDRGSRSSTYYADSVKGRFTISRDNSKNTLYLQMNSLRAEDTAVYYCARVYRYWFDYWGQGTLVTVSS VL: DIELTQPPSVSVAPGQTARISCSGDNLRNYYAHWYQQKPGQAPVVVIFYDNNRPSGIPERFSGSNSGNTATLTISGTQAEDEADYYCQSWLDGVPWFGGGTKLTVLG	6.5 ratio
2A8 HC S35D+S55R+K99L/LC Y48F+N51V+S89A+D91W+D92S+G93S+V94T+P95A (Fab, V domains shown) VH: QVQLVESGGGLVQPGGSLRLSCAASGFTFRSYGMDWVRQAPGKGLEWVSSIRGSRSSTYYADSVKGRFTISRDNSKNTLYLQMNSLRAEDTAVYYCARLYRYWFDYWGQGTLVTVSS VL: DIELTQPPSVSVAPGQTARISCSGDNLRNYYAHWYQQKPGQAPVVVIFYDVNRPSGIPERFSGSNSGNTATLTISGTQAEDEADYYCQAWWSSTAVFGGGTKLTVLG	9 ratio

Which variant/HC_K99L value is on record for 2A8 HC Q1E+R30S+S35D+S55R+S56G+K99L/LC D1S+I2Y+A13S+S21T+R28P+Y48F+N51V+E80M+D91W (Fab, V domains shown) VH: EVQLVESGGGLVQPGGSLRLSCAASGFTFSSYGMDWVRQAPGKGLEWVSSIRGSRGSTYYADSVKGRFTISRDNSKNTLYLQMNSLRAEDTAVYYCARLYRYWFDYWGQGTLVTVSS VL: SYELTQPPSVSVSPGQTARITCSGDNLPNYYAHWYQQKPGQAPVVVIFYDVNRPSGIPERFSGSNSGNTATLTISGTQAMDEADYYCQSWWDGVPVFGGGTKLTVLG ?
15.1 ratio
